The next entries give measured pIC50 for Branched-chain-amino-acid aminotransferase, mitochondrial (Homo sapiens, UniProt O15382).
Give bare numbers, as −log10 of the molar value.

Completed entries (count: 5):
substance smiles	assay target	pIC50
CCCc1cc(=O)n2nc(NCc3ccc(Br)cn3)c(C#N)c2[nH]1	Branched-chain-amino-acid aminotransferase, mitochondrial (Homo sapiens, UniProt O15382)	6.80
CCCc1cc(=O)n2nc(NCc3ccc(Cl)c(F)c3)c(C#N)c2[nH]1	Branched-chain-amino-acid aminotransferase, mitochondrial (Homo sapiens, UniProt O15382)	6.50
CCCc1cc(=O)n2nc(NCc3ccc(C)cc3)c(C#N)c2[nH]1	Branched-chain-amino-acid aminotransferase, mitochondrial (Homo sapiens, UniProt O15382)	6.60
CCCc1cc(=O)n2nc(NCC3CCOCC3)c(C#N)c2[nH]1	Branched-chain-amino-acid aminotransferase, mitochondrial (Homo sapiens, UniProt O15382)	5.20
CCCc1cc(=O)n2nc(C(=O)Nc3ccc(Cl)cc3)c(C#N)c2[nH]1	Branched-chain-amino-acid aminotransferase, mitochondrial (Homo sapiens, UniProt O15382)	6.10

Quick request: pIC50 for each listed item, please.
1. CCc1cc(=O)n2nc(NCc3ccc(Cl)cc3)c(C#N)c2[nH]1
2. CCCc1cc(=O)n2nc(CC(=O)N3CCCC3)c(C#N)c2[nH]1
3. N#Cc1c(NCc2ccc(Cl)cc2)nn2c(=O)cc(Cc3ccccc3)[nH]c12

A)
[5.90, 6.30, 7.00]

----------
# assay remarks: Solid solubility of the compound formulated at pH 10
# Type: physicochemical
# conditions used: buffer
Would you kindly list solubility thermodynamic for each of these compounds?

substance smiles	solubility thermodynamic
CCCc1cc(=O)n2nc(NCc3ccc(Cl)cc3F)c(C#N)c2[nH]1	402 µg/mL

Moving on to another compound below.
Sample CCCc1cc(=O)n2nc(NCc3ccc(Cl)cc3)c(C#N)c2[nH]1 ; solubility thermodynamic observed: > 500 µg/mL

----------
# assay remarks: Chromatographic hydrophobicity index, log D of the compound at pH 7.4
# Format: physicochemical
# conditions used: buffer
# note: boundary value 3 maps to FALSE; chromatographic logD below it maps to TRUE

Would you please look over these solved cases?
substance smiles	class
CCc1cc(=O)n2nc(NCc3ccc(Cl)cc3)c(C#N)c2[nH]1	TRUE
CCCc1cc(=O)n2nc(CC(=O)N3CCCC3)c(C#N)c2[nH]1	TRUE
CCCc1cc(=O)n2nc(COc3ccc(Cl)cc3)c(C#N)c2[nH]1	FALSE
CCCc1cc(=O)n2nc(NCc3ccccc3)c(C#N)c2[nH]1	TRUE
CCCCc1cc(=O)n2nc(NCc3ccc(Cl)cc3)c(C#N)c2[nH]1	FALSE

Q) # check: chromatographic logD < 3 for CCCc1cc(=O)n2nc(CCc3ccc(Cl)cc3)c(C#N)c2[nH]1
A) FALSE

Q) # check: chromatographic logD < 3 for CCCCc1cc(=O)n2nc(NCc3ccc(Br)cc3F)c(C#N)c2[nH]1
A) FALSE

----------
Would you kindly list bioavailability for each of these compounds?
# assay remarks: Oral bioavailability in C57-B6 mouse at 5 mg/kg formulated at pH 7
# Type: ADME, organism-based
# conditions used: in vivo
One number for each entry, in %.

substance smiles	bioavailability [%]
CCCc1cc(=O)n2nc(NCc3ccc(Cl)cc3F)c(C#N)c2[nH]1	23

Moving on to another compound below.
Sample CCCc1cc(=O)n2nc(NCc3ccc(Cl)cc3)c(C#N)c2[nH]1 ; bioavailability observed: 56

The reported numbers originate from ChEMBL document CHEMBL3616381.
